- System: 422866-222-R5-J1-PDC complex spheroids viability;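 further: spheroids exposed to compounds for 7 days; 100% = DMSO vehicle control viability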
- METHOD: Anticancer human tumor 422866-222-R5-J1-PDC patient-derived pancreatic adenocarcinoma cell line growth inhibition [RAS]
- CONDITION_SUMMARY: second compound 0.0316 µM; first compound 0.0949 µM; active compounds read low
Reported values of viability, T/C for individual entries
Numbers only here, please. The scale is %.

Q: I am curious: what viability, T/C value has been reported for CC1(C)CCC(Nc2ncc(C(F)(F)F)c(-c3c[nH]c4c(P(C)(C)=O)c(C#N)ccc34)n2)CN1 (centres undefined) + C#Cc1c(F)ccc2cc(O)cc(-c3ncc4c(N5CC6CCC(C5)N6)nc(OCC56CCCN5CC(F)C6)nc4c3F)c12 ?
Result: 62

FYI, the data here is from PubChem BioAssay AID2060901.
